Measured values drawn from patent US20230279018A1 for this set.

STUDY_TARGET: Pv (Plasmodium vivax) cFRS (Plasmodium vivax)
Construct: Full-length PvcFRS was also purified according to the same protocol; His6 (encoded by vector pETM11)
Sequence (A5K9S0 whole entry): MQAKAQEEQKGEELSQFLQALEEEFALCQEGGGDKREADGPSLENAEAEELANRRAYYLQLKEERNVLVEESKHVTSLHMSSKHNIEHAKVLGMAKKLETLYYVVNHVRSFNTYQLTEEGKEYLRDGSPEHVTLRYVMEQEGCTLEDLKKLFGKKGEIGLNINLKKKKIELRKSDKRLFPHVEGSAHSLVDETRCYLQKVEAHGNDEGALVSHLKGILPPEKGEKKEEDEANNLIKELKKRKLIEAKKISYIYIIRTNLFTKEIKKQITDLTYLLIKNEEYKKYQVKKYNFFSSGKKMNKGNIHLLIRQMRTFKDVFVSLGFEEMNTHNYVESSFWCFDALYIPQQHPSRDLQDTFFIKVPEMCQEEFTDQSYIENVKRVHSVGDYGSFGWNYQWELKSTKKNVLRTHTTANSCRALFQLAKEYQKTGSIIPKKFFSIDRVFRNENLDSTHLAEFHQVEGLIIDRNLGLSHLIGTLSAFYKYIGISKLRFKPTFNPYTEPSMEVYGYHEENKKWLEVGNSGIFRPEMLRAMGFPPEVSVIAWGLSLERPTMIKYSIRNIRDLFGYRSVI
Sequence (A5K464 whole entry, further chain): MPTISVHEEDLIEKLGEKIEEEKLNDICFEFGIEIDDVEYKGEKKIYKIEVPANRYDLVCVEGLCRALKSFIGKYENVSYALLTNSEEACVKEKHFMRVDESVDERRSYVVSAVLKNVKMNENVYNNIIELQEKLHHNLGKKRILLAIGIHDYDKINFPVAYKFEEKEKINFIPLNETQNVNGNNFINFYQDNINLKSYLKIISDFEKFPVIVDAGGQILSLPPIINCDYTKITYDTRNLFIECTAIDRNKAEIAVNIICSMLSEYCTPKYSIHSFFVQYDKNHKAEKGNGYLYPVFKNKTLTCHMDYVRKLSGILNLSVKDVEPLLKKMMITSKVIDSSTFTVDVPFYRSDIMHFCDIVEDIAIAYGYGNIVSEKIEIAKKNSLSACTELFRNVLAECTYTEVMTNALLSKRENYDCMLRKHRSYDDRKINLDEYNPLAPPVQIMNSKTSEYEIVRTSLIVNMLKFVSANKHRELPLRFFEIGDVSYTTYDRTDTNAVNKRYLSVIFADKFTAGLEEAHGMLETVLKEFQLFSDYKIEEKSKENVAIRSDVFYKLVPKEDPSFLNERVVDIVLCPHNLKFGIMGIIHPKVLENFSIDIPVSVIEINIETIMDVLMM
ASSAY_EXPLANATION: malachite green-based aminoacylation assay, PvcFRS
ASSAY_CONDITIONS: aminoacylation activity
Description: EC50 assays were run as described in Int'l Pub Nos. WO 2015070204, WO 2018175385, and Kato, N, et al. Nature 538 (2016): 344-349, which are hereby incorporated by reference in its entirety. […] The enzymatic activity of purified heterodimeric PfcFRS using malachite green-based aminoacylation assays with substrates L-Phe and ATP was also measured as described in Cestari, I. et al., J Biomol. […] Absorbance was the measured at 620 nm using a Spectramax M2 (Molecular Devices). […]
RECORDED_METRIC: IC50

COC[C@@H]1[C@H](c2ccc(C#Cc3ccccc3)cc2)[C@@H]2CN(C(=O)Nc3ccc(OC4CC4)cc3)C[C@@H](O)[C@@H](O)CN12 = 25 nM

====

STUDY_TARGET: PfcFRS (Plasmodium falciparum, UniProt Q8I246)
Sequence (Q8I246 1-575): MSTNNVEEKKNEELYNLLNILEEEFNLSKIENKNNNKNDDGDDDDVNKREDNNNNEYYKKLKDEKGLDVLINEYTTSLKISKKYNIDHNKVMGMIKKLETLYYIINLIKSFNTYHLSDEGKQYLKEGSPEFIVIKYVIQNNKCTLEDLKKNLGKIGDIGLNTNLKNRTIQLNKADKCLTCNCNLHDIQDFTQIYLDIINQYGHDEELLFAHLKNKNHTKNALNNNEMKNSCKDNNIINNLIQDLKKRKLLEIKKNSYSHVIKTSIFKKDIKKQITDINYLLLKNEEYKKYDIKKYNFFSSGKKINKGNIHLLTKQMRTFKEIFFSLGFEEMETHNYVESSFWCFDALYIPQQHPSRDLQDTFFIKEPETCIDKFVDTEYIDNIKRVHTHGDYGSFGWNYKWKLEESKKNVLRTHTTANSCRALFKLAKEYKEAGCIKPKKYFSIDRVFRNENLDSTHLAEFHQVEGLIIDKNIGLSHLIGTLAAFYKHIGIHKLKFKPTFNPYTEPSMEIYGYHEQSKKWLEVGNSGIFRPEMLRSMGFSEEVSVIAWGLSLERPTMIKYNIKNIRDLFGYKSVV
Sequence (Q8IIW2 1-623 partner): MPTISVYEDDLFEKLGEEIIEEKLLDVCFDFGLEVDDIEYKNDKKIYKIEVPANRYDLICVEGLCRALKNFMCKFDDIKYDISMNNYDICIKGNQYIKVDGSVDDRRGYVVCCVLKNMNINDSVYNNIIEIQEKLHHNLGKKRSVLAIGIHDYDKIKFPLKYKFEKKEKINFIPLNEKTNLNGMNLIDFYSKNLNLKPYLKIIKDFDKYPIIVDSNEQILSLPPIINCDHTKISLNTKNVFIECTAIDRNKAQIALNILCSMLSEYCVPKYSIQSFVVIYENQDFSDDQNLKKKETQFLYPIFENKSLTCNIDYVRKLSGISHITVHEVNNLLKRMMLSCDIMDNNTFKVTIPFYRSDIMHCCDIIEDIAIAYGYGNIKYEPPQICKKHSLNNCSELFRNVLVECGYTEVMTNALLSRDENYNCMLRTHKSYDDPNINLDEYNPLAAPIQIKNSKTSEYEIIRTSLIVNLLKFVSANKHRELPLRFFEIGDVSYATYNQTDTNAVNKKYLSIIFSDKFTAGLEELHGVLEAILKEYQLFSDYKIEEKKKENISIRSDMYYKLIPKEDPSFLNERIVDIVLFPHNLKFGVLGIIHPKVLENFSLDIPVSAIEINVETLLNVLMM
ASSAY_EXPLANATION: malachite green-based aminoacylation assay, PfcFRS
Format: biochemical
ASSAY_CONDITIONS: global competitive inhibition model, saturating ATP, varying L-Phe; read-out: Ki with respect to L-Phe
RECORDED_METRIC: Ki (nM)

COC[C@@H]1[C@H](c2ccc(C#Cc3ccccc3)cc2)[C@@H]2CN(C(=O)Nc3ccc(OC4CC4)cc3)C[C@@H](O)[C@@H](O)CN12 [Compound 1] = 6
